The values you see were collected from ChEMBL document CHEMBL1141566.

System: HT-29
measurement notes: Cytotoxicity against human HT29 cells after 72 hrs
Type: functional
condition set: HT-29, 72 h
assay metric: TGI (µM)
State the answer as a number, implicitly in µM.

Inquiry: Tell me the measured TGI of `NCCNc1ccc(NCCN)c2c1C(=O)c1ccncc1C2=O` , please.
Reply text: 3.2

Inquiry: Likewise for `CCN(CC)CCn1nc2c3c(c(NCCCN(C)CCCNc4ccc5c6c(nn5CCN(CC)CC)-c5cnccc5C(=O)c46)ccc31)C(=O)c1ccncc1-2` ?
Reply text: 4.5

Inquiry: Likewise for `CN(CCCNc1ccc(NCCN2CCCC2)c2c1C(=O)c1cnccc1C2=O)CCCNc1ccc(NCCN2CCCC2)c2c1C(=O)c1cnccc1C2=O` ?
Reply text: 7.9

Inquiry: Likewise for `CCN(CC)CCNc1ccc(NCCCN(C)CCCNc2ccc(NCCN(CC)CC)c3c2C(=O)c2cnccc2C3=O)c2c1C(=O)c1ccncc1C2=O` ?
Reply text: 32
